Values were extracted from paper PMC6724510.

testedTarget: Spf1p (Saccharomyces cerevisiae)
Sequence (P39986 whole entry): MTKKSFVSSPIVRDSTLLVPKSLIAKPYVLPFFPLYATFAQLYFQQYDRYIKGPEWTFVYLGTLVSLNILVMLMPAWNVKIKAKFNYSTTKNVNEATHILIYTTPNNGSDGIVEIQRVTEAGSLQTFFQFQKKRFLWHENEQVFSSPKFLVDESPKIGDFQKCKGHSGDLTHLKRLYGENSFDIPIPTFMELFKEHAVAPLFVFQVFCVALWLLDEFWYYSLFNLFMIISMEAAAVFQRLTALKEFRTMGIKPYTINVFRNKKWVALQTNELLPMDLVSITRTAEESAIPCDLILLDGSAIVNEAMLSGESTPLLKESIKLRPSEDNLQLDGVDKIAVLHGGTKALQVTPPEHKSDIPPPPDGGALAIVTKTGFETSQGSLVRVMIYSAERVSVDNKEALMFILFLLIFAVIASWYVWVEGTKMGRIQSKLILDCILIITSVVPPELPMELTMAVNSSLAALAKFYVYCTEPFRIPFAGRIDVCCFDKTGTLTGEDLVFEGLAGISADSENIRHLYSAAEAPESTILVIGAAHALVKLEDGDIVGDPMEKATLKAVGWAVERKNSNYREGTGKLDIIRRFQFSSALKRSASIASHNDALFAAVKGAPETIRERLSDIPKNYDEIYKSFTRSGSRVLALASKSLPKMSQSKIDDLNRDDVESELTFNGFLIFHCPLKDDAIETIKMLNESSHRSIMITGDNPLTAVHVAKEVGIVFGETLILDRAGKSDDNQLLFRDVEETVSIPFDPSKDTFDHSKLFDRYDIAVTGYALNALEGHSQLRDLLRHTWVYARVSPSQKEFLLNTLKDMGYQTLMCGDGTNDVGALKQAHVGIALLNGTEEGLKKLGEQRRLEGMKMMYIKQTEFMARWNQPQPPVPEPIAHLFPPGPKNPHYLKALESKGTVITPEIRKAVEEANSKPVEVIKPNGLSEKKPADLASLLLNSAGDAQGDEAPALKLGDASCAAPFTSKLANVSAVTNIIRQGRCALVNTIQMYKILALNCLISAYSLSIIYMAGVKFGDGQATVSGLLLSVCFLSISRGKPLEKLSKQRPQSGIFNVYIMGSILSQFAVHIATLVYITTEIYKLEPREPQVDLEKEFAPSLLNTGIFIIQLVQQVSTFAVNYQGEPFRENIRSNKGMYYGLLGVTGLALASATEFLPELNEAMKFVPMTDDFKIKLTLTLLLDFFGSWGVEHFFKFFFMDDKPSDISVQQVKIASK
readoutKind: pKi
Reminder that pKi is minus the log10 of a molar concentration.

For [O]=[V]([OH])([OH])[OH] [vanadate] , what is its reported pKi?
5.01
